Below: a set of entries, each annotated with reported AUC.
# Assay Method Text: AUC in cynomologus monkey at 0.3 mg/kg, po
# Format: ADME, organism-based, Macaca fascicularis
# Parameters: dose 0.3 mg/kg, route po
# Study Conditions: cynomolgus monkey, in vivo
Could you give me the number in µM·h? Just the number is fine.

Cc1nnn(C)c1-c1cnc2c3ccc(C(C)(C)O)cc3n([C@H](c3ccccc3)C3CCOCC3)c2c1
0.085

Now consider a different molecule.
Requested read-out: AUC. Entry: `[2H]C([2H])([2H])c1nnn(C)c1-c1cnc2c3cc(F)c(C(C)(C)O)cc3n([C@H](c3ccccc3)C3CCOCC3)c2c1` 1.9

###

# Assay Method Text: Metabolic stability in alamethicin treated human liver microsomes assessed as half life pretreated for 5 mins followed by UDPGA addition and measured up to 45 mins by LC-MS/MS analysis
# Format: ADME, Microsome
# Study Conditions: time < 50 min
Below: a set of entries, each annotated with reported half-life.
Could you give me the number in h? Just the number is fine.

Recorded results for 7 molecules are shown here.
[2H]C([2H])([2H])c1nnn(C)c1-c1cnc2c3cc(Cl)c(C(C)(C)O)cc3n([C@H](c3ccccc3)C3CCOCC3)c2c1
1.83
Cc1nnn(C)c1-c1cnc2c3ccc(C(C)(C)O)cc3n([C@H](c3ccccc3)C3CCOCC3)c2c1 [EZOBRESIB]
1.92
[2H]C([2H])([2H])c1nnn(C)c1-c1cnc2c3ccc(C(C)(C)O)c(F)c3n([C@H](c3ccccc3)C3CCOCC3)c2c1
2
[2H]C([2H])([2H])c1nnn(C)c1-c1cnc2c3c(OC)cc(C(C)(C)O)cc3n([C@H](c3ccccc3)C3CCOCC3)c2c1
1.63
Cc1nnn(C)c1-c1cnc2c3ccc(C(C)(O)C(F)(F)F)c(F)c3n([C@H](c3ccccc3)C3CCOCC3)c2c1 (stereo partly drawn)
2
[2H]C([2H])([2H])c1nnn(C)c1-c1cnc2c3cc(F)c(C(C)(C)O)cc3n([C@H](c3ccccc3)C3CCOCC3)c2c1
2
[2H]C([2H])([2H])c1nnn(C)c1-c1cnc2c3ccc(C(C)(C)O)c(Cl)c3n([C@H](c3ccccc3)C3CCOCC3)c2c1
2

Now consider a different molecule.
Requested read-out: half-life. Entry: `[2H]C([2H])([2H])c1nnn(C)c1-c1cnc2c3c(F)cc(C(C)(C)O)cc3n([C@H](c3ccccc3)C3CCOCC3)c2c1` 2

###

# Assay Method Text: Metabolic stability in alamethicin treated Sprague-Dawley rat liver microsomes assessed as half life pretreated for 5 mins followed by UDPGA addition and measured up to 45 mins by LC-MS/MS analysis
# Assay type: ADME, Microsome
# Study Conditions: time < 50 min
Measure Name: half-life (h)
Could you give me the number in h? Just the number is fine.

Recorded results for 7 compounds are shown here.
[2H]C([2H])([2H])c1nnn(C)c1-c1cnc2c3cc(F)c(C(C)(C)O)cc3n([C@H](c3ccccc3)C3CCOCC3)c2c1
2
[2H]C([2H])([2H])c1nnn(C)c1-c1cnc2c3ccc(C(C)(C)O)c(Cl)c3n([C@H](c3ccccc3)C3CCOCC3)c2c1
0.1
[2H]C([2H])([2H])c1nnn(C)c1-c1cnc2c3c(OC)cc(C(C)(C)O)cc3n([C@H](c3ccccc3)C3CCOCC3)c2c1
2
[2H]C([2H])([2H])c1nnn(C)c1-c1cnc2c3c(F)cc(C(C)(C)O)cc3n([C@H](c3ccccc3)C3CCOCC3)c2c1
2
Cc1nnn(C)c1-c1cnc2c3ccc(C(C)(O)C(F)(F)F)c(F)c3n([C@H](c3ccccc3)C3CCOCC3)c2c1 (stereo partly drawn)
0.85
[2H]C([2H])([2H])c1nnn(C)c1-c1cnc2c3cc(Cl)c(C(C)(C)O)cc3n([C@H](c3ccccc3)C3CCOCC3)c2c1
2
[2H]C([2H])([2H])c1nnn(C)c1-c1cnc2c3ccc(C(C)(C)O)c(F)c3n([C@H](c3ccccc3)C3CCOCC3)c2c1
0.1

Now consider a different compound.
Requested read-out: half-life. Entry: `Cc1nnn(C)c1-c1cnc2c3ccc(C(C)(C)O)cc3n([C@H](c3ccccc3)C3CCOCC3)c2c1` 1.02

###

# Assay Method Text: Oral bioavailability in mouse at 3 mg/kg
# Assay type: ADME, organism-based
# Study Conditions: in vivo
Measure Name: bioavailability (%)
Could you give me the number in %? Just the number is fine.

Requested read-out: bioavailability. Entry: `[2H]C([2H])([2H])c1nnn(C)c1-c1cnc2c3cc(F)c(C(C)(C)O)cc3n([C@H](c3ccccc3)C3CCOCC3)c2c1` 100

###

# Assay Method Text: Metabolic stability in alamethicin treated cynomologus monkey liver microsomes assessed as half life pretreated for 5 mins followed by NADPH addition and measured up to 45 mins by LC-MS/MS analysis
# Assay type: ADME, Macaca fascicularis, Microsome
# Study Conditions: cynomolgus monkey, time < 50 min
Measure Name: half-life

Requested read-out: half-life. Entry: `[2H]C([2H])([2H])c1nnn(C)c1-c1cnc2c3ccc(C(C)(C)O)c(F)c3n([C@H](c3ccccc3)C3CCOCC3)c2c1` 29 min

# repeat for `[2H]C([2H])([2H])c1nnn(C)c1-c1cnc2c3c(F)cc(C(C)(C)O)cc3n([C@H](c3ccccc3)C3CCOCC3)c2c1` 32 min

# repeat for `[2H]C([2H])([2H])c1nnn(C)c1-c1cnc2c3ccc(S(C)(=O)=O)cc3n([C@H](c3ccccc3)C3CCOCC3)c2c1` 40 min

# repeat for `[2H]C([2H])([2H])c1nnn(C)c1-c1cnc2c3ccc(C(C)(C)O)c(Cl)c3n([C@H](c3ccccc3)C3CCOCC3)c2c1` 30 min

# repeat for `[2H]C([2H])([2H])c1nnn(C)c1-c1cnc2c3cc(Cl)c(C(C)(C)O)cc3n([C@H](c3ccccc3)C3CCOCC3)c2c1` 45 min

# repeat for Cc1nnn(C)c1-c1cnc2c3ccc(C(C)(C)O)cc3n([C@H](c3ccccc3)C3CCOCC3)c2c1 [EZOBRESIB] 10 min

# repeat for `COc1cc2c3ncc(-c4c(C)nnn4C)cc3n([C@H](c3ccccc3)C3CCOCC3)c2cc1C(C)(C)O` 1 min

# repeat for `[2H]C([2H])([2H])c1nnn(C)c1-c1cnc2c3c(OC)cc(C(C)(C)O)cc3n([C@H](c3ccccc3)C3CCOCC3)c2c1` 11 min

# repeat for `[2H]C([2H])([2H])c1nnn(C)c1-c1cnc2c3cc(F)c(C(C)(C)O)cc3n([C@H](c3ccccc3)C3CCOCC3)c2c1` 10 min

# repeat for `[2H]C([2H])([2H])c1nnn(C)c1-c1cnc2c3ccc(C(C)(C)O)cc3n([C@H](c3ccccc3)C3CCOCC3)c2c1` 29 min

# repeat for `Cc1nnn(C)c1-c1cnc2c3ccc(S(C)(=O)=O)cc3n([C@H](c3ccccc3)C3CCOCC3)c2c1` 12 min

# repeat for Cc1nnn(C)c1-c1cnc2c3ccc(C(C)(O)C(F)(F)F)c(F)c3n([C@H](c3ccccc3)C3CCOCC3)c2c1 (some centres not stated) 49 min

###

# Assay Method Text: Metabolic stability in alamethicin treated human liver microsomes assessed as half life pretreated for 5 mins followed by NADPH addition and measured up to 45 mins by LC-MS/MS analysis
# Format: ADME, Microsome
# Study Conditions: time < 50 min
Threshold check on half-life: at or above 40 min gives T, strictly below gives F.

Reference set (5 entries):
COC(C)(C)c1ccc2c3ncc(-c4c(C)nnn4C)cc3n([C@H](c3ccccc3)C3CCOCC3)c2c1
F
[2H]C([2H])([2H])c1nnn(C)c1-c1cnc2c3cc(Cl)c(C(C)(C)O)cc3n([C@H](c3ccccc3)C3CCOCC3)c2c1
F
[2H]C([2H])([2H])c1nnn(C)c1-c1cnc2c3c(F)cc(C(C)(C)O)cc3n([C@H](c3ccccc3)C3CCOCC3)c2c1
T
[2H]C([2H])([2H])c1nnn(C)c1-c1cnc2c3ccc(C(C)(C)O)cc3n([C@H](c3ccccc3)C3CCOCC3)c2c1
T
[2H]C([2H])([2H])c1nnn(C)c1-c1cnc2c3ccc(S(C)(=O)=O)cc3n([C@H](c3ccccc3)C3CCOCC3)c2c1
T

Could you tell me if the measured half-life of `[2H]C([2H])([2H])c1nnn(C)c1-c1cnc2c3ccc(C(C)(C)O)c(F)c3n([C@H](c3ccccc3)C3CCOCC3)c2c1` reaches 40 min or more? T

# repeat for `COc1cc2c3ncc(-c4c(C)nnn4C)cc3n([C@H](c3ccccc3)C3CCOCC3)c2cc1C(C)(C)O` F

# repeat for Cc1nnn(C)c1-c1cnc2c3ccc(C(C)(C)O)cc3n([C@H](c3ccccc3)C3CCOCC3)c2c1 [EZOBRESIB] F

###

# Assay Method Text: Half life in mouse at 1.75 mg/kg, iv
# Type: ADME, organism-based
# Study Conditions: in vivo
Measure Name: half-life (h)
Could you give me the number in h? Just the number is fine.

Requested read-out: half-life. Entry: `Cc1nnn(C)c1-c1cnc2c3ccc(C(C)(C)O)cc3n([C@H](c3ccccc3)C3CCOCC3)c2c1` 1.9
